Assay: blockers of RIG-like receptor reporter activation – cell-based, Sendai virus stimulus, luciferase, 10K MLSCN set, TLR/RLR signaling modifier project, primary screen (AID 602276);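 also: firefly luciferase from ISG56 promoter only with Renilla not read in this screen; 0% = Sendai virus plus DMSO and 100% = medium plus DMSO without virus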
Details: HEK293 RL24 IRF3 luciferase reporter, at 10 µM, active compounds read high
Quick list: inhibition per entry.
Give the number; % is assumed, so skip it.

Exam item: Consider the molecule CCOC(=O)CSc1nnc(-c2ccc(Cl)cc2Cl)o1 and give its measured inhibition.
Marked response: 4.99

Exam item: Consider the molecule Cc1ccc(-c2noc(COc3ccccc3C)n2)cc1 and give its measured inhibition.
Marked response: -24.5

Exam item: Consider the molecule CN(C)CCCN1C(=O)c2oc3ccccc3c(=O)c2C1c1cccs1 (stereo unspecified) and give its measured inhibition.
Marked response: 7.52

Exam item: Consider the molecule CCOC(=O)Cn1nc(-c2ccc(Cl)cc2)cc1N and give its measured inhibition.
Marked response: -5.22

Exam item: Consider the molecule Cc1ccc(Nc2nc(CSc3nnc(-c4cccs4)o3)cs2)cc1 and give its measured inhibition.
Marked response: -22

Exam item: Consider the molecule COC(=O)c1ccc(CSc2nc3c(cnn3-c3ccc(F)cc3)c(=O)[nH]2)o1 and give its measured inhibition.
Marked response: -5.97

Exam item: Consider the molecule COc1ccc(C2/C(=C(/O)c3ccccc3)C(=O)C(=O)N2C)cc1 (stereo unspecified) and give its measured inhibition.
Marked response: 14.9

Exam item: Consider the molecule COCCn1c(SCC(=O)Nc2cccc(OC)c2)nnc1-c1ccc(Cl)cc1 and give its measured inhibition.
Marked response: 16.4

Exam item: Consider the molecule CC(C)[C@H](NC(=O)OC(C)(C)C)c1nnc(SCc2cccc(F)c2)o1 and give its measured inhibition.
Marked response: 9.92

Exam item: Consider the molecule CCOCC(=O)Nc1c(C(=O)Nc2ccc(OC)cc2OC)oc2ccccc12 and give its measured inhibition.
Marked response: -20.7

Exam item: Consider the molecule Cc1cc(C)cc(OCC(=O)NC2=NCCS2)c1 and give its measured inhibition.
Marked response: -3.94

Exam item: Consider the molecule COCCn1c(C23CC4CC(CC(C4)C2)C3)n[nH]c1=S and give its measured inhibition.
Marked response: 14.6

Exam item: Consider the molecule Cc1cc(NS(=O)(=O)c2ccc(Nc3nc(-c4sc(N)nc4C)cs3)cc2)no1 and give its measured inhibition.
Marked response: 6.21

Exam item: Consider the molecule CCOc1cc(C(=O)N(C)c2ccccc2)cc(OCC)c1OCC and give its measured inhibition.
Marked response: 18.6

Exam item: Consider the molecule Cc1cccc(C2c3c(n(C)c(=O)n(C)c3=O)N=C3c4ccccc4C(=O)C32)c1 (stereo unspecified) and give its measured inhibition.
Marked response: 16

Exam item: Consider the molecule CCOC(=O)N1CCC2(O)CCCCC2C1c1ccc(F)cc1 (stereo unspecified) and give its measured inhibition.
Marked response: 14.6
